# Tested Target: Cholinesterase (Equus caballus, UniProt P81908)
# Sequence (P81908 whole entry): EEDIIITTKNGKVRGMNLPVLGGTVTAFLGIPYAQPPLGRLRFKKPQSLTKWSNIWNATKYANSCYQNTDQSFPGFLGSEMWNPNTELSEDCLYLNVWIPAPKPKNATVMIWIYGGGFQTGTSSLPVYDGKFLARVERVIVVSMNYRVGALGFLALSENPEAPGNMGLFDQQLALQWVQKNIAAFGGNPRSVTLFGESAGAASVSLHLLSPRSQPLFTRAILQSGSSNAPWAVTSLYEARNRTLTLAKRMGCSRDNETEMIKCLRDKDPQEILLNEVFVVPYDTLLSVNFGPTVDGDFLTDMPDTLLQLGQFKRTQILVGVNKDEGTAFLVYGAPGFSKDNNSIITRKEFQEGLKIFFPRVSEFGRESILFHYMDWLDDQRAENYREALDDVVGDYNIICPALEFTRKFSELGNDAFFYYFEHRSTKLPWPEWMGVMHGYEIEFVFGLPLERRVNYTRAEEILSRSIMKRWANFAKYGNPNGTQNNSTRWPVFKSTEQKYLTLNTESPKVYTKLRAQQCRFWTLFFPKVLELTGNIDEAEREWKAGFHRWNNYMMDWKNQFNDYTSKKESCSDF
# Assay Remarks: Reversible competitive inhibition of equine serum BChE using acetylthiocholine iodide as substrate measured over 5 mins by Ellman's method
Entries whose IC50 is below 30 µM take 1.0; entries at or above 30 µM take 0.0.

Compound	Assigned Class
CNC(=O)Oc1ccc2c(c1)[C@]1(C)CCN[C@@H]1N2	1.0
O=C(O)C(F)(F)F.O=C1CC[C@@]2(C=CNC3=C2C2=NCCc4c[nH]c(c42)C3=O)C=C1Br	1.0
O=C1C2=C(C3=NCCc4c[nH]c1c43)C1(C=CN2)C=C(Br)C(O)C(Br)=C1 (stereo not given)	1.0
O=C1C=C2S[C@H]3C[C@]2(C=C1Br)C1=C(N3)C(=O)c2[nH]cc3c2C1=NCC3	0.0

# evaluate next
Please check: IC50 for "O=C1C2=C3C4=[N+](CCc5c[nH]c1c54)[C@@H]1C(=O)C=C4S[C@@H](C[C@@]43[C@H]1O)N2" , strictly under 30 µM or not?
0.0

====

# Tested Target: Cholinesterase (Equus caballus, UniProt P81908)
# Assay Remarks: Inhibition of equine serum BChE using acetylthiocholine iodide as substrate measured over 5 mins by Dixon plot analysis
Consider the following molecules; for each one, report its Ki.
Hi, when you answer, please include the unit after the number. Thanks!

Molecule	Tested Target	Ki
O=C1C2=C(C3=NCCc4c[nH]c1c43)C1(C=CN2)C=C(Br)C(O)C(Br)=C1 (stereo not drawn)	Cholinesterase (Equus caballus, UniProt P81908)	17.5 µM
O=C1C=C2S[C@H]3C[C@]2(C=C1Br)C1=C(N3)C(=O)c2[nH]cc3c2C1=NCC3 [DISCORHABDIN B]	Cholinesterase (Equus caballus, UniProt P81908)	76 µM

As a next step, examine the molecule that follows.
What reported Ki corresponds to "O=C(O)C(F)(F)F.O=C1CC[C@@]2(C=CNC3=C2C2=NCCc4c[nH]c(c42)C3=O)C=C1Br" on Cholinesterase (Equus caballus, UniProt P81908)?
5 µM

====

These compounds were tested on Acetylcholinesterase (Electrophorus electricus, UniProt O42275); pIC50 is the recorded read-out.
Sequence (O42275 whole entry): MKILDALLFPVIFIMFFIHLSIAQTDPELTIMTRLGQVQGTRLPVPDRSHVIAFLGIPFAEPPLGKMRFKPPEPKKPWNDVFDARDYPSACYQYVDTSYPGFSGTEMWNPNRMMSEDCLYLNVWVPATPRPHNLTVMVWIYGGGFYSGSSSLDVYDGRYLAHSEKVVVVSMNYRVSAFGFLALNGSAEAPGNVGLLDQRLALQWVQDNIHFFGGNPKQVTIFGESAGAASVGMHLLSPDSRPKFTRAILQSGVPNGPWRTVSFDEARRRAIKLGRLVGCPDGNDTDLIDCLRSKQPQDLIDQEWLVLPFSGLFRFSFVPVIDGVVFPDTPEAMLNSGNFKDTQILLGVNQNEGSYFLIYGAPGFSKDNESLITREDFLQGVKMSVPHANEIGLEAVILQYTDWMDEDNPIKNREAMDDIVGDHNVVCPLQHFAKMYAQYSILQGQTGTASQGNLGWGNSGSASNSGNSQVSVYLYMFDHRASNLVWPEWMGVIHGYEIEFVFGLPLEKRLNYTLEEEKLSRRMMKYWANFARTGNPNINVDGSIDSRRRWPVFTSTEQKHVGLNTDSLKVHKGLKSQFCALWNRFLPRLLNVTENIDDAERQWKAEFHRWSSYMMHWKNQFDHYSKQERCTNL
Numbers only, as −log10 of the molar value.

See these solved cases before continuing.
Compound	pIC50
O=C1C2=C3C4=[N+](CCc5c[nH]c1c54)[C@@H]1C(=O)C=C4S[C@@H](C[C@@]43[C@H]1O)N2 [DISCORHABDIN L]	4.59
CNC(=O)Oc1ccc2c(c1)[C@]1(C)CCN[C@@H]1N2	5.52
O=C1C2=C(C3=NCCc4c[nH]c1c43)C1(C=CN2)C=C(Br)C(O)C(Br)=C1 (stereo not given)	4.84
O=C1C=C2S[C@H]3C[C@]2(C=C1Br)C1=C(N3)C(=O)c2[nH]cc3c2C1=NCC3 [DISCORHABDIN B]	5.24

pIC50 for "O=C(O)C(F)(F)F.O=C1CC[C@@]2(C=CNC3=C2C2=NCCc4c[nH]c(c42)C3=O)C=C1Br" ?
5.89

====

# Tested Target: Acetylcholinesterase (Homo sapiens, UniProt P22303)
# Sequence (P22303 whole entry): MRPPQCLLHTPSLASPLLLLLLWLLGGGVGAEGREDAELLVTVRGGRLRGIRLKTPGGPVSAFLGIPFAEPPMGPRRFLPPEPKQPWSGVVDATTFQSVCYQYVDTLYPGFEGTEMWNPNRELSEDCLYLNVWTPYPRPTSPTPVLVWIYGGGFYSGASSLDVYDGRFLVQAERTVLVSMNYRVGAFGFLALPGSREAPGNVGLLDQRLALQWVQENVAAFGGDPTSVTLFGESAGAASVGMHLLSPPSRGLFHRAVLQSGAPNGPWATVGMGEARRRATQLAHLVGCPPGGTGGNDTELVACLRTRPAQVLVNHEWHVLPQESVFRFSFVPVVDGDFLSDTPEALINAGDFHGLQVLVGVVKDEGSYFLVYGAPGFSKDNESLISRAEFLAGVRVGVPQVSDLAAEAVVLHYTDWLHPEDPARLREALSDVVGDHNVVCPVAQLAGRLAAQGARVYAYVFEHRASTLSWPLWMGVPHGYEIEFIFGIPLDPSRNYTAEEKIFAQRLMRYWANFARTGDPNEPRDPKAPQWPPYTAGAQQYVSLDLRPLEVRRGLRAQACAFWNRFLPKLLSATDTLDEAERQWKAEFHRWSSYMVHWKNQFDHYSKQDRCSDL
pIC50: −log10 of the molar value.
// label = 1.0 if pIC50 is not less than 4, otherwise 0.0

These solved cases illustrate the format of a correct answer.
Molecule	Assigned Class
O=C1C2=C(C3=NCCc4c[nH]c1c43)C1(C=CN2)C=C(Br)C(O)C(Br)=C1 (stereo not given)	0.0
O=C1C2=C3C4=[N+](CCc5c[nH]c1c54)[C@@H]1C(=O)C=C4S[C@@H](C[C@@]43[C@H]1O)N2	0.0

Identify whether the reported pIC50 of the following molecule is 4 or greater: "O=C1C=C2S[C@H]3C[C@]2(C=C1Br)C1=C(N3)C(=O)c2[nH]cc3c2C1=NCC3"
1.0

Evaluate "CNC(=O)Oc1ccc2c(c1)[C@]1(C)CCN[C@@H]1N2" : pIC50 at minimum 4?
1.0

====

# Tested Target: Acetylcholinesterase (Electrophorus electricus)
For each record, write down the corresponding pKi.
Answers are plain numbers, as −log10 of the molar value.

Compound	Tested Target	Obs Value
O=C1C2=C3C4=[N+](CCc5c[nH]c1c54)[C@@H]1C(=O)C=C4S[C@@H](C[C@@]43[C@H]1O)N2	Acetylcholinesterase (Electrophorus electricus)	4.82
O=C1C2=C(C3=NCCc4c[nH]c1c43)C1(C=CN2)C=C(Br)C(O)C(Br)=C1 (centres undefined)	Acetylcholinesterase (Electrophorus electricus)	5.46
O=C(O)C(F)(F)F.O=C1CC[C@@]2(C=CNC3=C2C2=NCCc4c[nH]c(c42)C3=O)C=C1Br	Acetylcholinesterase (Electrophorus electricus)	5.80

Now examine the next entry.
Need pKi of "O=C1C=C2S[C@H]3C[C@]2(C=C1Br)C1=C(N3)C(=O)c2[nH]cc3c2C1=NCC3" , thanks.
5.72
